Provenance of the data: patent US20100120690A1

# Test system: B. subtilis
# EXPERIMENT DESCRIPTION: Minimal Effective Concentration (MEC) assay
# Format: cell-based, Bacillus subtilis
EXPERIMENTAL ENDPOINT: MEC against B. subtilis (micrograms/mL)

| SUBSTANCE | REPORTED MEASUREMENT |
| --- | --- |
| Y25R (GFGCNGPWDEDDMQCHNHCKSIKGRKGGYCAKGGFVCKCY) [Mutation Y25R] | 0.04 |
| GFGCNGPWDEDDMQCHNHCKSIKGYKGGYCAKGGFVCKCY (listed as Pseudoplectania nigrella) [wildtype, wildtype plectasin, parent antimicrobial polypeptide, reference compound] | 0.09 |
| GFGCNGPWDEDDMQCHNHCKSIKGYKGGYCAKGGFVCKCYR [Mutation Y40YR] | 0.05 |
| GFGCNGPWDEDDMQCHRHCKSIKGYKGGYCAKGGFVCKCY [Mutation N17R] | 0.07 |
